# credit: PubChem BioAssay AID2672

Assay: qHTS Assay Multiplex Screening to Identify Dual Action Probes in a Cell Model of Huntington: Cytoprotection in HTT Q25 expressing cells (ATP)
Conditions: PC12 HTT-Q25 inducible, ATP luminescence, 40 h; series mostly up to 46.1 µM
Results filed as inconclusive are left out. Activity calls are given as the source filed them. Calls come from the whole dose curve; as a rule, active = well fitted curve in the direction sought with a large enough effect; inconclusive = small, poorly fitted or top-dose-only effect, or another doubt; inactive = no such curve, though single readings can be large or run the other way.
Your answer must be one of the following: active, inactive

Study these solved cases before continuing.
Substance smiles | Classification
COc1cccc(-c2csc3ncnc(Sc4nnnn4C)c23)c1 | active
COc1ccc(-c2csc3ncnc(Sc4nnnn4C)c23)cc1 | inactive

# input What did the test return for Cn1nnnc1Sc1ncnc2scc(-c3ccccc3)c12 ?
# output inactive

# input What did the test return for Cn1nnnc1Sc1ncnc2scc(-c3ccc(C(F)(F)F)cc3)c12 ?
# output inactive

# input What did the test return for Cn1nnnc1Sc1ncnc2scc(-c3cccc(C#N)c3)c12 ?
# output inactive

# input What did the test return for Cn1nnnc1Sc1ncnc2scc(-c3ccccc3C(F)(F)F)c12 ?
# output inactive

# input What did the test return for Cn1nnnc1Sc1ncnc2scc(-c3ccccc3Br)c12 ?
# output inactive
